test system: EfPiwi piRISC loaded with L1MC piRNA (26 nt); experiment: pre-steady-state target cleavage rate (min^-1); auxiliary factor: 500 nM Ephydatia muelleri Gtsf1; guide: L1MC piRNA 5'p-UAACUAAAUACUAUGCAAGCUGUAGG; higher = faster piRNA-guided slicing of the target
property.label: pre-steady-state target cleavage rate
Could you keep your reply to the number by itself?

{"columns": ["sequence.input", "pre-steady-state target cleavage rate"],
 "data": [
  ["UCCUGGAUGAGCUUGCAUUGUAAUUAGUUA", 0.00306]
]}

Lookup: Identify pre-steady-state target cleavage rate associated with the sequence UCCUCCUACAGCAUGCAAAGUAUUUAGUUA
Found: 0.0492

Lookup: Identify pre-steady-state target cleavage rate associated with the sequence UCCUGGAACAGCUACCAUAGUAUUUAGUUA
Found: 0.00309

Lookup: Identify pre-steady-state target cleavage rate associated with the sequence UCCUGCAUCAGCUUGCAUAGUAUUUACAAA
Found: 0.00323

Lookup: Identify pre-steady-state target cleavage rate associated with the sequence UCCUGGUACAGCUUGCAUAGUAAUUUAGUUA
Found: 0.00647

* * *

tested on: MILI (PIWIL2) piRISC loaded with piRNA #1 (26 nt); assay: pre-steady-state target cleavage rate (min^-1); guide: piRNA #1 5'p-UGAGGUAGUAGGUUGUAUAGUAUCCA; higher = faster piRNA-guided slicing of the target; details: auxiliary factor: 500 nM mouse GTSF1;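 note: 1 nM active piRISC with 0.1 nM target library at 33 °C single turnover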
property.label: pre-steady-state target cleavage rate
Could you keep your reply to the number by itself?

Previously resolved entries follow.
{"columns": ["sequence.input", "pre-steady-state target cleavage rate"],
 "data": [
  ["GGAGACCUAUGUAUACAACCUACAACCACA", 0.0115],
  ["GGAGACCUAUGAAUACAACCUACUACACUCA", 0.00526],
  ["GGAGUGGAUACUAUAACAACCUACUACCUCA", 0.171],
  ["GGAGACCUUACUAUACAACCUACUUCCACA", 0.0518],
  ["GGAGACCAUACUAUACAACCAACUACCACA", 0.00384],
  ["GGAGACCUAUGUAUACAACCUACAUCCUCA", 0.00671],
  ["GGAGACCUAUGAUUACAACCUACUACUCUCA", 0.00541],
  ["GGAGACCUAACUAAACAACCUAGUACCUCA", 0.0123]
]}

We next turn to a different sequence, shown below.
Lookup: Identify pre-steady-state target cleavage rate associated with the sequence GGAGACCUAUGUAUACAACCAACUACCUCA
Found: 0.0033

* * *

test system: EfPiwi piRISC loaded with L1MC piRNA (26 nt); assay: pre-steady-state target cleavage rate (min^-1); auxiliary factor: 500 nM Ephydatia muelleri Gtsf1; guide: L1MC piRNA 5'p-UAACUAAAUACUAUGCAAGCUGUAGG; MIWI and MILI are mouse PIWI proteins and EfPiwi is from a freshwater sponge; tags in brackets are library labels; higher = faster piRNA-guided slicing of the target
Measured pre-steady-state target cleavage rate accompanies every entry in the list below.
Could you keep your reply to the number by itself?

{"columns": ["sequence.input", "numeric.readout"],
 "data": [
  ["UCCUGGUACAGAUUGCAUAGUAUUUAGUUA", 0.0131],
  ["UCCUCCUACCAGCUUGCAUAGUAUUUAGUUA", 0.0186],
  ["UCCUGGAUCAGCUUGCAUAGUAUUUCGUUA", 0.00263],
  ["UCCUCCUUGAGCUUGCAUAGUAUUUAGAAA", 0.00549],
  ["UCCUGGAACAGCUUGCACUAGUAUUUAGUUA", 0.00312]
]}

Lookup: Identify pre-steady-state target cleavage rate associated with the sequence UCCUGGAUGUGCUCUGCAUAGUAUUUAGUUA
Found: 0.00925

Lookup: Identify pre-steady-state target cleavage rate associated with the sequence UCCUGCUAUAGCUUGCAUAGUAUUUAGUUA
Found: 0.014

Lookup: Identify pre-steady-state target cleavage rate associated with the sequence UCCUGGAACAGCUUGCAUAGAAUUUAGUUA
Found: 0.0051
